Quick reference for IC90 among some compounds
Test system: Collectotrichum graminicola (Cg)
Test: In vitro pathogen growth inhibition assay, Cg
Assay type: cell-based
Settings: 48 h, concentration sufficient to ≥90% inhibition of growth; 48 hours vs 2% DMSO control; read-out: Compound Concentration (ppm) for ≥90% inhibition, Cg
Dear colleague, please return just the value in µg/mL, with no unit written.

>>> numeric_value("COc1ccccc1[C@@H](O)Cn1c(=O)n(C(C)(C)C(=O)N2CCCC2)c(=O)c2c(C)c(-n3nccn3)sc21")
50

Q. Any idea what its IC90 is? The compound is COc1ccc(F)cc1[C@H](Cn1c(=O)n([C@@H](C)C(N)=O)c(=O)c2c(C)c(-n3nccn3)sc21)OCC(C)(C)C#N
A. 50

* * *

Quick reference for IC90 among some compounds
Tested on: Collectotrichum graminicola (Cg)
Test: In vitro pathogen growth inhibition assay, Cg
Type: cell-based
Conditions: 48 h, ≥90% growth inhibition; 48 hours; vs 2% DMSO control; read-out: Compound Concentration (ppm) sufficient for ≥90% inhibition of Cg
Dear colleague, please return just the value in µg/mL, with no unit written.

>>> numeric_value("CCOC(=O)c1sc2c(c1C)c(=O)n([C@H](C)C(=O)N(C)C(C)C)c(=O)n2C[C@H](OCCC#N)c1cc(F)ccc1OC")
2

# evaluate next
Q. Any idea what its IC90 is? The compound is COCCO[C@@H](Cn1c(=O)n(C(C)(C)C(=O)NC2CCC2)c(=O)c2c(C)c(-n3cccn3)sc21)c1cc(F)ccc1OC
A. 10

* * *

System: Rhizoctonia solani (Rs)
Assay: In vitro pathogen growth inhibition assay, Rs (mycelial plugs)
Assay type: cell-based
Settings: Rhizoctonia solani, 48 h, ≥90% growth inhibition; mycelial plugs; 48 hours; vs 2% DMSO control; read-out: Compound Concentration (ppm) sufficient for ≥90% inhibition of Rs
quantity kind: IC90
Dear colleague, please send the value followed by its unit.

Sample records with IC90:
>>> result("CCNC(=O)C(C)(C)n1c(=O)c2c(C)c(C(=O)OCC)sc2n(C[C@H](OCCC#N)c2cc(F)ccc2OC)c1=O")
"0.08 µg/mL"
>>> result("COc1ccc(F)cc1[C@H](Cn1c(=O)n(C(C)(C)C(=O)NC(C)C)c(=O)c2c(C)c(-n3nccn3)sc21)OC[C@@H](C)C#N")
"0.08 µg/mL"

# evaluate next
Q. Any idea what its IC90 is? The compound is Cc1c(-n2nccn2)sc2c1c(=O)n(C(C)(C)C(=O)NC(C)C)c(=O)n2CCc1cc(F)ccc1CCCC#N
A. 10 µg/mL

* * *

Test system: Collectotrichum graminicola (Cg)
Experiment: In vitro pathogen growth inhibition assay, Cg
Type: cell-based
Settings: 48 h, ≥90% growth inhibition; 48 hours; vs 2% DMSO control; read-out: Compound Concentration (ppm) sufficient for ≥90% inhibition of Cg
Decide using IC90 alone. Strictly below 2 µg/mL: true. Equal to or above 2 µg/mL: false.

Here's what some known entries look like.
>>> label("COc1ccc(F)cc1[C@@](O)(CO)Cn1c(=O)n(C(C)(C)C(=O)NC(C)C)c(=O)c2c(C)c(-n3nccn3)sc21 [Compound I-315]")
"true"
>>> label("COc1ccccc1[C@H](Cn1c(=O)n(C(C)(C)C(=O)NC(C)C)c(=O)c2c(C)c(-n3cccn3)sc21)OCCC#N [Compound I-192]")
"false"
>>> label("COc1ccc(F)cc1[C@H](Cn1c(=O)n(C(C)(C)C(=O)NC(C)C)c(=O)c2c(C)c(-n3nccn3)sc21)OC[C@H](C)C#N [Compound I-212]")
"true"
>>> label("CCc1ccc(F)cc1[C@H](Cn1c(=O)n(C(C)(C)C(=O)NC(C)C)c(=O)c2c(C)c(-n3nccn3)sc21)OC[C@H](C)C#N [Compound I-284]")
"true"
>>> label("CCOC(=O)c1ccc(F)cc1[C@H](Cn1c(=O)n(C(C)(C)C(=O)NC(C)C)c(=O)c2c(C)c(-n3nccn3)sc21)OCCC#N [Compound I-335]")
"false"

Q. # TODO verify IC90 < 2 µg/mL strictly for this compound: CCNC(=O)C(C)(C)n1c(=O)c2c(C)c(-n3nccn3)sc2n(C[C@H](OCCC#N)c2cc(F)ccc2OC)c1=O [Compound I-206]
A. true

Q. Also COc1ccc(F)cc1[C@H](Cn1c(=O)n([C@@H](C)C(=O)N(C)C(C)C)c(=O)c2c(C)c(-n3nccn3)sc21)OCCC#N [Compound I-204] , if possible.
A. false

Q. Also COc1ccc(F)cc1[C@@H](O)Cn1c(=O)n(C(C)(C)C(=O)NC(C)C)c(=O)c2c(C)c(-n3nccn3)sc21 [Compound I-185] , if possible.
A. true

Q. Also COc1ccc(F)cc1[C@H](Cn1c(=O)n(C(C)(C)C(=O)NC(C)C)c(=O)c2c(C)c(-n3nccn3)sc21)OC(C)=O [Compound I-323] , if possible.
A. true

* * *

System: Collectotrichum graminicola (Cg)
Experiment: In vitro pathogen growth inhibition assay, Cg
Format: cell-based
Details: 48 h, ≥90% growth inhibition; 48 hours; vs 2% DMSO control; read-out: Compound Concentration (ppm) sufficient for ≥90% inhibition of Cg
quantity kind: IC90

Sample records with IC90:
>>> result("COCCO[C@@H](Cn1c(=O)n(C(C)(C)C(=O)NC2CCCCC2)c(=O)c2c(C)c(-n3cccn3)sc21)c1cc(F)ccc1OC")
"> 50 µg/mL"
>>> result("Cc1c(-n2nccn2)sc2c1c(=O)n(C(C)(C)C(=O)NC(C)C)c(=O)n2C[C@H](OCCC#N)c1ccccc1O")
"> 50 µg/mL"

Q. Param readout= IC90; system= Collectotrichum graminicola (Cg); entry= Cc1c(-n2nccn2)sc2c1c(=O)n(C(C)(C)C(=O)NC(C)C)c(=O)n2CCc1cc(F)ccc1OCc1ccccc1 ; returns value.
A. > 50 µg/mL

* * *

Quick reference for IC90 among some compounds
Tested on: Rhizoctonia solani (Rs)
Assay: In vitro pathogen growth inhibition assay, Rs (mycelial plugs)
Assay type: cell-based
Settings: Rhizoctonia solani, 48 h, ≥90% growth inhibition; mycelial plugs; 48 hours; vs 2% DMSO control; read-out: Compound Concentration (ppm) sufficient for ≥90% inhibition of Rs

Sample records with IC90:
>>> result("COc1ccc(F)cc1[C@H](Cn1c(=O)n(C(C)(C)C(=O)NC(C)C)c(=O)c2c(C)c(-n3nccn3)sc21)OCCCO")
"> 50 µg/mL"
>>> result("CCOC(=O)c1sc2c(c1C)c(=O)n(C(C)(C)C(=O)NC(C)C)c(=O)n2CCc1cc(F)ccc1OC")
"> 50 µg/mL"

Q. Any idea what its IC90 is? The compound is COc1ccc(F)cc1[C@H](Cn1c(=O)n(C(C)(C)C(=O)N2CCCC2)c(=O)c2c(C)c(-n3nccn3)sc21)OC[C@@H](C)O
A. ≥ 0.4 µg/mL

* * *

Tested on: Phytophthora capsici (Pc)
Assay: In vitro pathogen growth inhibition assay, Pc
Assay type: cell-based
Details: 48 h, ≥90% inhibition, 48 hours vs 2% DMSO control, read-out: Compound Concentration (ppm) sufficient for ≥90% inhibition of growth, Pc
Quick reference for IC90 among some molecules

Sample records with IC90:
>>> result("COc1ccccc1[C@H](Cn1c(=O)n(C(C)(C)C(=O)N2CCCC2)c(=O)c2c(C)c(-n3nccn3)sc21)OC1CCOCC1")
"≥ 10 µg/mL"
>>> result("COc1ccc(F)cc1[C@H](Cn1c(=O)n([C@@H](C)C(=O)N2CCCC2)c(=O)c2c(C)c(-n3cccn3)sc21)OC(C)C")
"> 50 µg/mL"
>>> result("COc1ccc(F)cc1[C@H](Cn1c(=O)n(C(C)(C)C(=O)N2CCCC2)c(=O)c2c(C)c(-n3nccn3)sc21)OCCO")
"50 µg/mL"

Q. Param readout= IC90; system= Phytophthora capsici (Pc); entry= COc1ccc(F)cc1[C@H](Cn1c(=O)n(C(C)(C)C(N)=O)c(=O)c2c(C)c(-c3ncco3)sc21)OCC1CCC(=O)CC1 ; returns value.
A. > 50 µg/mL

* * *

System: Rhizoctonia solani (Rs)
Assay: In vitro pathogen growth inhibition assay, Rs (mycelial plugs)
Assay type: cell-based
Conditions: Rhizoctonia solani, 48 h, ≥90% growth inhibition; mycelial plugs; 48 hours; vs 2% DMSO control; read-out: Compound Concentration (ppm) sufficient for ≥90% inhibition of Rs
quantity kind: IC90 (µg/mL)
Dear colleague, please return just the value in µg/mL, with no unit written.

Sample records with IC90:
>>> numeric_value("COc1ccc(F)cc1[C@@H](O)Cn1c(=O)n([C@H](C)C(=O)N2CCCC2)c(=O)c2c(C)c(-n3nccn3)sc21")
0.4
>>> numeric_value("COc1ccccc1[C@H](Cn1c(=O)n([C@H](C)C(=O)N(C)C(C)C)c(=O)c2c(C)c(-n3cccn3)sc21)OCCC#N")
2
>>> numeric_value("COc1ccc(F)cc1[C@@H](O)Cn1c(=O)n([C@@H](C)C(=O)N2CCCC2)c(=O)c2c(C)c(-n3nccn3)sc21")
2
>>> numeric_value("COc1ccc(F)cc1[C@H](Cn1c(=O)n(C(C)(C)C(=O)NC(C)C)c(=O)c2c(C)c(-n3cccn3)sc21)OC[C@@H](C)C#N")
0.08
>>> numeric_value("CCNC(=O)C(C)(C)n1c(=O)c2c(C)c(C(=O)OCC)sc2n(C[C@H](OCCC#N)c2cc(F)ccc2O)c1=O")
0.08

Q. Any idea what its IC90 is? The molecule is COc1ccccc1[C@H](Cn1c(=O)n(C(C)(C)C(=O)NC(C)C)c(=O)c2c(C)c(-n3nccn3)sc21)OCCC(=O)NO
A. 2

The reported numbers originate from patent US10941157B2.
